# log10 of IC50 per entry
procedure.summary: DPPH radical scavenging activity assay
test.conditions: isolated compounds; test concentrations 15.625 to 500 μM; mean ± SD
Kindly note that the scale is log10 and the underlying IC50 is in µM.

# count of solved cases: 5
compound="CCOC(=O)c1cc(O)c(O)c(O)c1 [Compound 10, Ethyl gallate]" readout_type="log10 of IC50" recorded_value=1.58
compound=O=c1c(O)c(-c2ccc(O)c(O)c2)oc2cc(O)cc(O)c12 readout_type="log10 of IC50" recorded_value=1.78
compound="Oc1cc(O)c2c(c1)O[C@H](c1ccc(O)c(O)c1)[C@H](O)C2 [Compound 16, Epicatechin]" readout_type="log10 of IC50" recorded_value=1.60
compound="COC(=O)c1cc(O)c(O)c(O)c1 [Compound 5, Methyl galate]" readout_type="log10 of IC50" recorded_value=1.51
compound="O=C(O)c1ccc(O)c(O)c1 [Compound 7, 3,4-Dihydroxybenzoic acid]" readout_type="log10 of IC50" recorded_value=1.58

Could you tell me which log10 of IC50 is on file for O=C(OCC1OC(OC(=O)c2cc(O)c(O)c(O)c2)C(OC(=O)c2cc(O)c(O)c(O)c2)C(OC(=O)c2cc(O)c(O)c(O)c2)C1OC(=O)c1cc(O)c(O)c(O)c1)c1cc(O)c(O)c(O)c1 (stereo not shown) ?
1.35

Subsequent entry: O=C(OC[C@H]1O[C@@H](OC(=O)c2cc(O)c(O)c(O)c2)[C@H](OC(=O)c2cc(O)c(O)c(O)c2)[C@@H](OC(=O)c2cc(O)c(O)c(O)c2)[C@@H]1O)c1cc(O)c(O)c(O)c1 [Compound 3, 1,2,3,6-Tetra-O-galloyl-β-D-glucoside]
1.37

Subsequent entry: O=C(OC[C@H]1O[C@@H](OC(=O)c2cc(O)c(O)c(O)c2)[C@H](OC(=O)c2cc(O)c(O)c(O)c2)[C@@H](OC(=O)c2cc(O)c(O)c(O)c2)[C@@H]1OC(=O)c1cc(O)c(O)c(O)c1)c1cc(O)c(O)c(O)c1
0.47

====

procedure.summary: DPPH radical scavenging activity assay
test.conditions: isolated compounds; test concentrations 15.625 to 500 μM; mean ± SD
# pIC50 per entry
Lab note — pIC50 values are minus log10 of concentrations in M.

# count of solved cases: 3
compound="O=C(O[C@@H]1O[C@H](CO)[C@@H](O)[C@H](O)[C@H]1O)c1cc(O)c(O)c(O)c1 [Compound 4]" readout_type=pIC50 recorded_value=4.28
compound="COc1cc(/C=C/C(=O)O)ccc1O [Compound 11, Ferulic acid]" readout_type=pIC50 recorded_value=4.02
compound="O=C(O)c1cc(O)c(O)c(O)c1 [Compound 6, Gallic acid]" readout_type=pIC50 recorded_value=4.42

Could you tell me which pIC50 is on file for O=C(O)/C=C/c1ccc(O)c(O)c1 [Compound 12, Caffeic acid] ?
4.43
